System: SN12C renal
ASSAY_REMARKS: NCI tumour cell line growth inhibition, 48 h; in the data active means GI50 below about 0.43 µM; inactive means the rest
Respond with a class label; see 1 = active, 0 = inactive

// below: answered compounds
For this compound, state the assay outcome: Cc1ccc2c(ccc3c[n+]4c5ccccc5ccc4n32)c1
1

What did this assay record as the result for CNC(=O)n1ccc2cc(Oc3ccnc(NC(=O)c4ccc(C5CCN(CCO)CC5)cc4)c3)c(OCCOC)cc21 ?
0

Please share the test call associated with C[C@H](Nc1ncnc2nc[nH]c12)c1cc2cccc(Cl)c2c(=O)n1-c1ccccc1 .
0

Name the outcome recorded for C=C1C(O)C2(O)OCC34C(CC5C(C)=CC(=O)C(O)C5(C)C23)OC(=O)C(OC(=O)C/C=C(\C)CCCCC)C14 (stereo unspecified) in the assay.
1

Query: recorded result category for CC/C=C\C=C/C(=O)N/C=C/CC1Cc2cccc(O)c2C(=O)O1 (stereo unspecified) in this test
0

// outcome(item) with item = O=C1OC(=O)C(c2c[nH]c3ccccc23)=C1c1c[nH]c2ccccc12
0

// outcome(item) with item = O=CNc1c(Cl)cc2c(c1Cl)Cc1cc([N+](=O)[O-])ccc1-2
0

Which outcome did this test record for the compound O=C1c2ccccc2-c2c1c1ccccc1c(=O)n2CCCNCCCNCCCn1c2c(c3ccccc3c1=O)C(=O)c1ccccc1-2 ?
1

---
Tell me the recorded outcome of this test for C=CCc1c2c(c(OC)c3ccoc13)C(=O)/C(=C/c1ccccc1OC)O2 .
0

Recorded call for COc1cccc(/C=C/C(=O)c2cccc(Nc3nc(Nc4ccccc4)nc(Nc4ccccc4)n3)c2)c1 ?
0

What is the recorded call for this compound in the test? Cc1ccc(/C=C2\CN(C(=O)OC(C)(C)C)C/C(=C\c3ccc(C)cc3)C2=O)cc1
1

* * *

Tested on: HOP-18 NSCLC
ASSAY_REMARKS: NCI tumour cell line growth inhibition, 48 h
QUANTITY_NAME: TGI (µM)
// note: answer is a bare numeric in µM

Jot down TGI (HOP-18 NSCLC) of CCC12C[N+]3([O-])CCc4c([nH]c5ccccc45)C(C(=O)OC)(c4cc5c(cc4OC)N(C)C4C(O)(C(=O)OC)C(OC(C)=O)C6(CC)C=CCN7CCC54C76)CC(C3)C1O2 (stereo not given) .
47.5

Note: attention shifts to another entry.
Check HOP-18 NSCLC data and give TGI for CCN(CC)CCn1ccc(=O)c2cc3c(=O)ccn(CCN(CC)CC)c3c(C)c21 .
30

* * *

System: SK-MEL-2 melanoma
ASSAY_REMARKS: NCI tumour cell line growth inhibition, 48 h
# TGI per record follows
Output spec: scalar in µM, unitless text.

These solved cases illustrate the format of a correct answer.
Report TGI, nothing else, for this molecule: O=C(Nc1cccc2cnccc12)c1cc2c(cc1Cl)Sc1nccn1S2(=O)=O
32.2

Quote TGI reported for CCN(CC)CCNc1ccc2nnn3c4ccc(OC)cc4c(=O)c1c23 please.
27.4

Provide measured TGI value, entry: Cc1ccc2c(ccc3c[n+]4c5ccccc5ccc4n32)c1
3.9

Others:
Give the reported TGI for this molecule. CCN(Cc1ccc(F)c(F)c1)c1ccc(CO)c(Cl)c1
19.5

Indicate the recorded TGI value for this molecule: COc1ccc2c(CCCC(c3ccccc3)c3ccccc3)c3[n+](cc2c1OC)CCc1cc2c(cc1-3)OCO2
1.11

* * *

// reported TGI for each item listed
Tested on: A549 NSCLC
ASSAY_REMARKS: NCI tumour cell line growth inhibition, 48 h

Below, 3 compounds whose answers are already recorded.
Identify the reported TGI for the following entry. O=c1c2ncn(C3CC(O)C(CO)O3)c2nnn1Cc1ccccc1[N+](=O)[O-] (stereo not given)
> 100 µM

Given the compound CC(C)(C)NC(=O)[C@H]1CC[C@H]2[C@@H]3CC=C4NC(=O)CC[C@]4(C)[C@H]3CC[C@]12C , write its reported TGI.
> 100 µM

State, in one line, measured TGI of CN(C)NC(=S)Nc1ccccc1Br
> 100 µM

Further cases:
Identify measured TGI associated with C[C@@H](C(=O)Nc1ccc(Cl)cc1)C1CCC(c2ccnc3ccc(F)cc23)CC1 (stereo not given in full)
> 100 µM

Give reported TGI value for COc1ccc2nc3cc([N+](=O)[O-])ccc3c(NCCCCCN(C)C)c2c1
1.15 µM

Please give the documented TGI of CN(C)S(=O)(=O)c1ccc(NC(=O)COC(=O)c2ccc(S(=O)(=O)N3CCCCC3)cc2)cc1
> 100 µM

* * *

Test system: SR leukemia
ASSAY_REMARKS: NCI tumour cell line growth inhibition, 48 h
Listed below: GI50 values for each entry.

Retrieve GI50 measured for COC1(C(=O)N[C@@H](C)c2ccc(-n3cc(F)cn3)nc2)CCC(c2nc(C)cc(Nc3cc(C)[nH]n3)n2)CC1 (stereo partly drawn) and print it.
6.14 µM

For the molecule CNC(=O)c1cncc(/C=C/c2ccccc2C)c1 , give its reported GI50.
> 25 µM

With those in mind, consider the next molecule.
Report measured GI50; entry is C=C1C(=O)O[C@H]2[C@H]1CC/C(COC(=O)NCc1ccccc1OC)=C\CC[C@@]1(C)O[C@@H]21
0.679 µM

* * *

Measured TGI by item
Tested on: SF-539 CNS
ASSAY_REMARKS: NCI tumour cell line growth inhibition, 48 h
Just the number please, in µM, no unit attached.

The examples below pair each entry with its known result.
Please report TGI with SF-539 CNS for item CN(C)c1ccc(-c2c(C#N)c(S)n(NS(=O)(=O)c3ccccc3)c(=O)c2C#N)cc1 .
53.4

Find the measured TGI of Nc1nn2c(C(Br)Br)cc(C(Br)Br)nc2c1[N+](=O)[O-] with SF-539 CNS as test system.
1.16

# context switch: different molecule, same TGI
// fetch TGI for CC(C)(C)C[C@H]1NC(C(=O)NCC[C@H](O)CO)[C@H](c2cccc(Cl)c2)[C@@]12C(=O)Nc1cc(Cl)c(F)cc12 (stereo partly specified) ; system: SF-539 CNS
31.8

* * *

Tested on: MALME-3M melanoma
ASSAY_REMARKS: NCI tumour cell line growth inhibition, 48 h; in the data active means GI50 below about 0.43 µM; inactive means the rest
Could you please pick one outcome from this set? active, inactive

Give the logged outcome of this assay for the following compound: CN(C)S(=O)(=O)c1ccc(NC(=O)COC(=O)c2ccc(S(=O)(=O)N3CCCCC3)cc2)cc1
inactive

Could you please tell me the result logged for CCN(CC)c1ccc(C(=C2C=CC(=[N+](CC)Cc3cccc(S(=O)(=O)O)c3)C=C2)c2ccc(N(CC)Cc3cccc(S(=O)(=O)O)c3)cc2)cc1 in this assay?
inactive

How did this test come out for C=C1C(O)C2(O)OCC34C(CC5C(C)=CC(=O)C(O)C5(C)C23)OC(=O)C(OC(=O)C/C=C(\C)CCCCC)C14 (stereo not drawn) ?
active

Which outcome did this test record for the compound Cc1[c-]onc1C.Cc1[c-]onc1C.[Ag].[Ag].[NH-]S(=O)(=O)c1ccc(N=Nc2cc(N=Nc3ccc(S([NH-])(=O)=O)cc3)c3c(NC(=O)C(Cl)Cl)cccc3c2OC(=O)C(Cl)Cl)cc1 ?
inactive

// return assay outcome for Nc1c(C(=O)Nc2cccc([N+](=O)[O-])c2)sc2nc3c(cc12)C(O)CCC3 (stereo not drawn)
inactive

Tell me the assay call for C[C@@H](C(=O)Nc1ccc(Cl)cc1)C1CCC(c2ccnc3ccc(F)cc23)CC1 (stereo partly drawn) please.
inactive

Hello, I am checking results. What call was entered for CN1CCN(CCc2cccc(C(=O)c3cnn(-c4ccc(F)cc4)c3N)c2)CC1 ?
inactive

I would be grateful if you could indicate the recorded call for COC(=O)/C=C/C=C(c1ccccc1)c1ccccc1 .
inactive

Could you please tell me the result logged for Cc1ccncc1.[O]=[Ge].[O]=[Ge].[O]=[Ge].[O]=[Ge].[O]=[Ge].[O]=[Ge][OH].[O]=[Ge][OH] in this assay?
inactive

Assay outcome for COC(=O)[C@]12CC[C@@H](C)[C@H](C)[C@@H]1C1=CC[C@@H]3[C@@]4(C)C[C@@H](OC(C)=O)[C@H](O)[C@@](C)(COC(C)=O)[C@@H]4[C@H](O)C[C@@]3(C)[C@]1(C)CC2 : what was it?
inactive

What classification did COc1ccc2nc3cc([N+](=O)[O-])ccc3c(NCCCCCN(C)C)c2c1 end up with in this test?
inactive

Name the outcome recorded for O=C1OC(=O)C(c2c[nH]c3ccccc23)=C1c1c[nH]c2ccccc12 in the assay.
inactive

Dear all, I need the recorded test outcome for N#Cc1cnc2cc(OC[C@H](O)CO)c(NC(=O)CC3CSSC3)cc2c1Nc1ccc(OCc2cccc(F)c2)c(Cl)c1 , thank you.
inactive

* * *

List of TGI values.
Test system: NCI-H522 lung
ASSAY_REMARKS: NCI tumour cell line growth inhibition, 48 h
Quick note: give the figure in µM, leave out the unit.

Solved cases (3 shown):
Quick one: give measured TGI for CCN(CC)CCn1ccc(=O)c2cc3c(=O)ccn(CCN(CC)CC)c3c(C)c21
20.7

Complete the entry with TGI for CCCCn1c2c(n(CCCC)c1=S)-c1c(n(CCCC)c(=S)n1CCCC)S[Se][Se]S2
0.479

Give TGI for the following compound: Cc1ccc2c(ccc3c[n+]4c5ccccc5ccc4n32)c1
3.8

Next:
Please give the documented TGI of CCOC1CC(=O)c2c(Br)sc(Br)c21 (stereo not drawn)
52.7

Tell us which TGI value is on record for Cc1occc1C(=S)Nc1ccc(Cl)c(COC(C)(C)C)c1
28.6

Let me know recorded TGI for C=C1[C@@H](O)C[C@@]23CC[C@@H]4[C@@]5(C)CC[C@@H](OC(C)=O)C(C)(C)[C@@H]5C[C@@H](OC5OC(COC(C)=O)C(O)C(O)C5O)[C@@]4(C)C2=CC[C@H]3[C@H]1C (stereo partly drawn) , thanks.
21.1

Quote TGI reported for COc1ccc(Nc2nc3ccc(C(F)(F)F)cc3nc2C(=O)O)cc1OC please.
84.6

Could you please provide reported TGI for COC1(C(=O)N[C@@H](C)c2ccc(-n3cc(F)cn3)nc2)CCC(c2nc(C)cc(Nc3cc(C)[nH]n3)n2)CC1 (stereo partly drawn) ? Thanks!
16.7

FYI, the data here is from PubChem BioAssay (NCI).
